Documented Avg 2 h Coupled Exchange IC50 across a set of compounds
# measured.target: GDP-bound KRAS protein (aa 1-169), containing both G12D and C118A amino acid substitutions (Homo sapiens, UniProt P01116, C118A/G12D)
# Sequence (P01116 1-169 isoform P01116-2 G12D/C118A): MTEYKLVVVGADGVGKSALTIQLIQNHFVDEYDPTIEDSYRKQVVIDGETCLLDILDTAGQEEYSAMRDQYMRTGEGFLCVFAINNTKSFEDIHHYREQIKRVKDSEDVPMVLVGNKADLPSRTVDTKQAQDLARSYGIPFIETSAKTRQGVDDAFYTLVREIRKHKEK
# assay.name: KRAS G12D Coupled Nucleotide Exchange Assay;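 note: IC50 obtained by fitting the AlphaScreen signal with a four-parameter logistic curve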
# Assay type: biochemical
# conditions.used: 2 h compound pre-incubation; SOS-mediated nucleotide exchange, cRAF AlphaScreen readout
Answer format: numeric, nM implied, no suffix.

See these solved cases before continuing.
Nc1nc2c(-c3c(Cl)cc4c(N5CCCNC(=O)C5)nc(OCC56CCCN5CCC6)nc4c3F)ccc(F)c2s1 | 14
CN1CCC[C@H]1COc1nc(N2C[C@H]3CC[C@@H]2CN3)c2cc(Cl)c(-c3cccc4sc(N)nc34)c(F)c2n1 | 429
Cc1cc2c(N3CCNCC3)nc(OC[C@@H]3CCCN3C)nc2c(F)c1-c1cccc2sc(N)nc12 | 40
Nc1nc2c(-c3c(Cl)cc4c(N5[C@@H]6CNC[C@H]5COC6)nc(OC[C@@]56CCCN5C[C@H](F)C6)nc4c3F)ccc(F)c2s1 | 3
CN1CCC[C@H]1COc1nc(N2CCNC(C(F)(F)F)C2)c2cc(Cl)c(-c3cccc4sc(N)nc34)c(F)c2n1 (some centres unmarked) | 3655
Nc1nc2c(-c3c(Cl)cc4c(N5CCNC6CCCC65)nc(OC[C@@]56CCCN5C[C@H](F)C6)nc4c3F)ccc(F)c2s1 (some centres unmarked) | 48
CC1CNCC=C1c1nc(OC[C@@H]2CCCN2C)nc2c(F)c(-c3cccc4sc(N)nc34)c(Cl)cc12 (single isomer, unassigned) [Example 146] | 1560
CN1C[C@H](F)C[C@H]1COc1nc(N2CCNC(=O)CC2)c2cc(Cl)c(-c3ccc(F)c4sc(N)nc34)c(F)c2n1 | 67
CC1CNCC=C1c1nc(OC[C@@H]2CCCN2C)nc2c(F)c(-c3cccc4sc(N)nc34)c(Cl)cc12 (single isomer, unassigned) [Example 145] | 803
CN1CCC[C@H]1COc1nc(N2CCN[C@@H](CO)C2)c2cc(Cl)c(-c3cccc4sc(N)nc34)c(F)c2n1 | 181

## Task Tell me Avg 2 h Coupled Exchange IC50 reported for CN1CCC[C@H]1COc1nc(N2CCCNCC2)c2cc(Cl)c(-c3cccc4sc(N)nc34)c(F)c2n1
## Result 30

## Task Tell me Avg 2 h Coupled Exchange IC50 reported for Nc1nc2c(-c3c(Cl)cc4c(N5[C@@H]6CC[C@H]5CNC6)nc(OC[C@@]56CCCN5C[C@H](F)C6)nc4c3F)ccc(F)c2s1
## Result 4

## Task Tell me Avg 2 h Coupled Exchange IC50 reported for CN1CCC2CN(c3nc(N4CCNCC4)c4cc(Cl)c(-c5cccc6sc(N)nc56)c(F)c4n3)CC21 (centres unmarked)
## Result 1310

## Task Tell me Avg 2 h Coupled Exchange IC50 reported for CN1CCCC2C1CCN2c1nc(N2CCNCC2)c2cc(Cl)c(-c3cccc4sc(N)nc34)c(F)c2n1 (centres unmarked)
## Result 1400

## Task Tell me Avg 2 h Coupled Exchange IC50 reported for CN1CCC[C@H]1CCOc1nc(N2CCNCC2)c2cc(Cl)c(-c3cccc4sc(N)nc34)c(F)c2n1
## Result 361

###

# measured.target: His-tagged KRAS G12D protein (Homo sapiens, UniProt P01116, G12D)
# Sequence (P01116 1-188 isoform P01116-2 G12D): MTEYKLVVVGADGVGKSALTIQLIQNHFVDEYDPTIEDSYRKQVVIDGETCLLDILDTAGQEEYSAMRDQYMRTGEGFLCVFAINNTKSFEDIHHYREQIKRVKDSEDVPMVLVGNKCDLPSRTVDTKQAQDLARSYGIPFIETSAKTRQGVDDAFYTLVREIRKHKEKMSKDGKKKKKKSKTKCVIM
# assay.name: KRAS G12D TR-FRET Assay
# Format: binding
# conditions.used: biotinylated KRPep-2d substrate, 10 μM GDP
Documented pIC50 across a set of compounds
# pIC50 is unitless: minus log10 of the molar concentration; print number only

CN1CCC[C@H]1COc1nc(N2CCNCC2)c2cc(F)c(-c3cccc4sc(N)nc34)c(F)c2n1 [Example 134] | 5.62
C[C@]1(COc2nc(N3CCNCC3)c3cc(Cl)c(-c4cccc5sc(N)nc45)c(F)c3n2)CCCN1 [Example 74] | 6.64

## Task Tell me pIC50 reported for CN1CCC[C@H]1COc1nc(N2CCN[C@@H](CO)C2)c2cc(Cl)c(-c3cccc4sc(N)nc34)c(F)c2n1 [Example 25]
## Result 6.62

## Task Tell me pIC50 reported for CN1C[C@H](F)C[C@H]1COc1nc(N2CCCNC(=O)C2)c2cc(Cl)c(-c3ccc(F)c4sc(N)nc34)c(F)c2n1 [Example 19]
## Result 7.07

## Task Tell me pIC50 reported for C=Cc1cc2c(N3C[C@H]4CC[C@@H](C3)N4)nc(OC[C@@]34CCCN3C[C@H](F)C4)nc2c(F)c1-c1ccc(F)c2sc(N)nc12 [Example 150]
## Result 8.52

## Task Tell me pIC50 reported for Nc1nc2c(-c3c(Cl)cc4c(N5[C@@H]6CNC[C@H]5COC6)nc(OCC56CCCN5CC(F)(F)C6)nc4c3F)ccc(F)c2s1 (some centres unmarked) [Example 126]
## Result 7.92

## Task Tell me pIC50 reported for Nc1nc2c(-c3c(Cl)cc4c(N5C[C@H]6CC[C@@H](C5)N6)nc(OC[C@@]56CCCN5C[C@H](F)C6)nc4c3F)ccc(F)c2s1 [Example 137]
## Result 8.52

###

# measured.target: His-tagged KRAS G12D protein (Homo sapiens, UniProt P01116, G12D)
# assay.name: KRAS G12D TR-FRET Assay
# conditions.used: biotinylated KRPep-2d substrate, 10 μM GDP
Please assign no (0) whenever IC50 is at or above 50 nM, and yes (1) whenever it is below.

Nc1nc2c(-c3c(Cl)cc4c(N5CCNCC5)nc(OC[C@@]56CCCN5[C@@H](CO)CC6)nc4c3F)cccc2s1 | no (0)
CN1CC[C@H]1COc1nc(N2CCNCC2)c2cc(Cl)c(-c3cccc4sc(N)nc34)c(F)c2n1 | no (0)
CN1C[C@H](F)C[C@H]1COc1nc(N2[C@@H]3CNC[C@H]2COC3)c2cc(Cl)c(-c3ccc(F)c4sc(N)nc34)c(F)c2n1 | yes (1)
Nc1nc2c(-c3c(Cl)cc4c(N5CCNCC5)nc(OCC56CCCCN5CCC6)nc4c3F)cccc2s1 (stereo not shown) | no (0)
Nc1nc2c(-c3c(F)cc4c(N5C[C@H]6CC[C@@H](C5)N6)nc(OC[C@@]56CCCN5C[C@H](F)C6)nc4c3F)ccc(F)c2s1 | yes (1)
Nc1nc2c(-c3c(F)cc4c(N5[C@@H]6CC[C@H]5CNC6)nc(OC[C@@]56CCCN5C[C@H](F)C6)nc4c3F)ccc(F)c2s1 | yes (1)

Now examine the next entry.
## Task Input CN1CCC[C@H]1COc1nc(N2CCNCC2)c2cc(C#N)c(-c3cccc4sc(N)nc34)c(F)c2n1 ; condition: IC50 strictly below 50 nM. Does it hold?
## Result no (0)

###

# measured.target: His-tagged KRAS G12D protein (Homo sapiens, UniProt P01116, G12D)
# assay.name: KRAS G12D TR-FRET Assay;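 note: europium anti-His antibody paired with streptavidin-d2 as FRET partners, initial 30 min incubation, then peptide 1 h and detection reagents 1 h, all at room temperature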
# conditions.used: biotinylated KRPep-2d substrate, 10 μM GDP
pIC50: −log10 of the molar value.
# label = Fulfilled if pIC50 >= 8 else Not fulfilled

CCc1cc2c(N3[C@@H]4CC[C@H]3CNC4)nc(OC[C@@]34CCCN3C[C@H](F)C4)nc2c(F)c1-c1ccc(F)c2sc(N)nc12 | Fulfilled
C[C@H]1CNCCN1c1nc(OC[C@@H]2CCCN2C)nc2c(F)c(-c3cccc4sc(N)nc34)c(Cl)cc12 | Not fulfilled
Nc1nc2c(-c3c(Cl)cc4c(N5CCNCC5)nc(OC[C@]56CCCN5[C@@H](CO)CC6)nc4c3F)cccc2s1 | Not fulfilled
Nc1nc2c(-c3c(Cl)cc4c(N5C6CCNCC5CC6)nc(OC[C@@]56CCCN5C[C@H](F)C6)nc4c3F)ccc(F)c2s1 (single isomer, unassigned) [Example 33] | Not fulfilled
Nc1nc2c(-c3c(Cl)cc4c(N5[C@@H]6CC[C@H]5CNC6)nc(OC[C@]56CCCN5C[C@H](F)C6)nc4c3F)ccc(F)c2s1 | Fulfilled
Nc1nc2c(-c3c(Cl)cc4c(N5[C@@H]6CNC[C@H]5COC6)nc(OC[C@@]56CCCN5C[C@H](F)C6)nc4c3F)ccc(F)c2s1 | Fulfilled
Nc1nc2c(-c3c(Cl)cc4c(N5C[C@H]6C[C@@H](C5)N6)nc(OC[C@@]56CCCN5C[C@H](F)C6)nc4c3F)ccc(F)c2s1 | Fulfilled
Cc1cc(-c2c(Cl)cc3c(N4CCNCC4)nc(OC[C@@H]4CCCN4C)nc3c2F)c2nc(N)sc2c1 | Not fulfilled

## Task Given Nc1nc2c(-c3c(Cl)cc4c(N5[C@@H]6CC[C@H]5CNC6)nc(OC[C@@]56CCCN5C[C@H](F)C6)nc4c3F)ccc(F)c2s1 , state whether its pIC50 is at least 8.
## Result Fulfilled

## Task Given CN1CCC[C@H]1COc1nc(N2CCNC(=O)C2)c2cc(Cl)c(-c3cccc4sc(N)nc34)c(F)c2n1 , state whether its pIC50 is at least 8.
## Result Not fulfilled

## Task Given CCc1cc2c(N3C[C@H]4CC[C@@H](C3)N4)nc(OC[C@@]34CCCN3C[C@H](F)C4)nc2c(F)c1-c1ccc(F)c2sc(N)nc12 , state whether its pIC50 is at least 8.
## Result Fulfilled
